Provenance of the data: PubChem BioAssay (NCI)

Tested on: SK-MEL-28 melanoma
Assay: NCI-60 one-dose screen, 48 h
Conditions: 10 µM
Compounds without any hit were thinned out: in the full panel of roughly 83,000, 20% have a hit. Calls of active or inactive are those of the source. How the source made its calls: active means growth percent below 10; inactive means the rest.
Outcome codes: active, inactive

>  <compound>
CCCc1ccnc(NS(=O)(=O)c2ccc(N)cc2)n1

>  <target>
SK-MEL-28 melanoma

>  <category>
inactive

$$$$
>  <compound>
CCc1c(C(=O)NCc2c(O)ccc3cccc(O)c23)[nH]c(C)c1C(C)=O

>  <target>
SK-MEL-28 melanoma

>  <category>
inactive

$$$$
>  <compound>
Cc1ccc(-c2cc(-c3cccc(Nc4ccnc5cc(Cl)ccc45)c3)nc3nc(N)[nH]c(=O)c23)cc1

>  <target>
SK-MEL-28 melanoma

>  <category>
inactive

$$$$
>  <compound>
NC(=O)C12C(=O)NC(=O)C1(C(=O)O)C21CCCC1 (configuration not stated)

>  <target>
SK-MEL-28 melanoma

>  <category>
inactive

$$$$
>  <compound>
O=[N+]([O-])c1ccc(-c2nc(-c3ccccc3)c(-c3ccccc3)n2-c2ccccc2)cc1

>  <target>
SK-MEL-28 melanoma

>  <category>
inactive

$$$$
>  <compound>
CCN1CCOC1C(C)C (configuration not stated)

>  <target>
SK-MEL-28 melanoma

>  <category>
inactive

$$$$
>  <compound>
Oc1[nH]c2ccccc2c1/C=c1/cc2c(c(-c3ccc(C(F)(F)F)cc3)n1)=Nc1ccccc1-2

>  <target>
SK-MEL-28 melanoma

>  <category>
inactive

$$$$
>  <compound>
O=[N+]([O-])c1ccc2c(c1)Cc1cc(I)ccc1-2

>  <target>
SK-MEL-28 melanoma

>  <category>
inactive

$$$$
>  <compound>
Cc1ccccc1C1=N[C@@H](Cc2ccccc2)C(=O)c2c(nc3ccccn23)N1

>  <target>
SK-MEL-28 melanoma

>  <category>
inactive

$$$$
>  <compound>
COc1ccc(C2C=C(c3ccc(OC)c(OC)c3)N=C3SC=CN32)c(Br)c1 (configuration not stated)

>  <target>
SK-MEL-28 melanoma

>  <category>
inactive

$$$$
>  <compound>
CCOC(=O)c1cc(-c2ccccc2)nc(N)n1

>  <target>
SK-MEL-28 melanoma

>  <category>
inactive

$$$$
>  <compound>
COc1ccc(Nc2ccnc(N3CCN(c4ccnc5cc(Cl)ccc45)CC3)n2)cc1

>  <target>
SK-MEL-28 melanoma

>  <category>
active

$$$$
>  <compound>
CCn1nc(-c2ccccn2)c2cccnc2c1=S

>  <target>
SK-MEL-28 melanoma

>  <category>
inactive

$$$$
>  <compound>
O=C(Nc1ccc(Oc2ccc(Nc3nc4ccccc4s3)cc2)cc1)Nc1ccc(Cl)c(Cl)c1

>  <target>
SK-MEL-28 melanoma

>  <category>
inactive

$$$$
>  <compound>
Nc1c(C(=O)NC2CCCCC2)sc2nc3c(cc12)C(=O)CCC3

>  <target>
SK-MEL-28 melanoma

>  <category>
inactive

$$$$
>  <compound>
COc1cc(C2C(C#N)=C(c3c[nH]c4ccccc34)Nc3nc(N)[nH]c(=O)c32)cc(OC)c1OC (configuration not stated)

>  <target>
SK-MEL-28 melanoma

>  <category>
inactive

$$$$
>  <compound>
N=C(N)c1ccc(-c2ccc(-c3cccs3)s2)nc1

>  <target>
SK-MEL-28 melanoma

>  <category>
inactive

$$$$
>  <compound>
CCOC(=O)Nc1ccc2c(c1)C(=O)N(CCOC)c1ccccc1O2

>  <target>
SK-MEL-28 melanoma

>  <category>
inactive

$$$$
>  <compound>
Cn1c([N+](=O)[O-])cnc1/C=C1\Oc2ccc(Br)cc2C1=O

>  <target>
SK-MEL-28 melanoma

>  <category>
active

$$$$
>  <compound>
O=NN(CC(=O)N/N=C/C=C\c1ccccc1)CC(=O)N/N=C/C=C/c1ccccc1

>  <target>
SK-MEL-28 melanoma

>  <category>
inactive

$$$$
>  <compound>
Cc1ccc(/C(CS(=O)(=O)c2ccc(C)cc2)=N\O)cc1

>  <target>
SK-MEL-28 melanoma

>  <category>
inactive

$$$$
>  <compound>
CCOc1cc(Br)c(C(C)NC(=O)c2cccc(OC)c2)cc1OCC (configuration not stated)

>  <target>
SK-MEL-28 melanoma

>  <category>
active

$$$$
